Value source: patent US8980887B2

# Lookup of reported Inhibition rate (%) keyed by entry
Target: TSPO protein separated and purified from rat heart (Rattus norvegicus (Rat), UniProt P16257)
Assay: TSPO and radioligand (3H-PK11195) competitive binding test
Details: 1 × 10^−9M; n = 6 times
Text: In the present test, TSPO protein separated and purified from rat heart was used as screening target, via competitive binding test with radioligand (^3H-PK11195), to screen TSPO ligand compounds. […]
Put your answer as a value accompanied by its unit after it.

Worked cases, answers included:
MOLECULE	Inhibition rate (%)
CCN(Cc1ccccn1)C(=O)Cc1c(-c2ccc(Cl)c(Cl)c2)nc2cc(C)ccn12.Cl	30%
CCN(Cc1ccccc1)C(=O)Cc1c(-c2ccc(Cl)cc2)nc2cc(C)ccn12	12%
CN1C(=O)CN=C(c2ccc(Cl)cc2)c2cc(Cl)ccc21 [Compound R05-4864, 4′-chlorodiazepam, reference compound]	57%
COCCN(Cc1cccnc1)C(=O)Cc1c(-c2ccc(Cl)c(Cl)c2)nc2cc(C)ccn12.Cl	0%
CCN(Cc1ccccn1)C(=O)Cc1c(-c2ccc(C)cc2)nc2cc(C)ccn12.Cl	14%

(Q) Quick one: Inhibition rate (%) of CCN(Cc1ccncc1)C(=O)Cc1c(-c2ccc(OC)cc2)nc2cc(C)ccn12.Cl ?
(A) 4%

(Q) Quick one: Inhibition rate (%) of CCN(Cc1ccccn1)C(=O)Cc1c(-c2ccc(OC)cc2)nc2cc(C)ccn12.Cl ?
(A) 0%

(Q) Quick one: Inhibition rate (%) of COCCN(Cc1cccnc1)C(=O)Cc1c(-c2ccc(Cl)cc2)nc2cc(C)ccn12.Cl ?
(A) 0%

====

# Lookup of reported Inhibition rate (%) keyed by entry
biological target: TSPO protein separated and purified from rat heart (Rattus norvegicus (Rat)); test: TSPO and radioligand (3H-PK11195) competitive binding test; settings: 1 × 10^−9M; n = 6 times
Enter your answer as a number in %; do not include the unit.

Worked cases, answers included:
COMPOUND	VALUE REPORTED
CCN(Cc1ccncc1)C(=O)Cc1c(-c2ccc(Cl)cc2)nc2cc(C)ccn12.Cl [Compound 4]	0
COCCN(Cc1ccccn1)C(=O)Cc1c(-c2ccc(Cl)cc2)nc2cc(C)ccn12.Cl [Compound 5]	0
CCN(Cc1ccccc1)C(=O)Cc1c(-c2ccc(C)cc2)nc2cc(C)ccn12 [Compound 13]	42

Now for a further compound.
(Q) Quick one: Inhibition rate (%) of CCN(Cc1cccnc1)C(=O)Cc1c(-c2ccc(Cl)c(Cl)c2)nc2cc(C)ccn12.Cl [Compound 9] ?
(A) 0

====

target: TSPO protein separated and purified from rat heart (Rattus norvegicus (Rat)); assay: TSPO and radioligand (3H-PK11195) competitive binding test; conditions: 9 gradient concentrations, plotting and fitting
ASSAY ENDPOINT: pIC50
# log scale: pIC50 equals minus log10 of the concentration in mol/L

Worked cases, answers included:
CCN(Cc1ccccc1)C(=O)Cc1c(-c2ccc(Cl)c(Cl)c2)nc2cc(C)ccn12 6.94
CCN(Cc1ccccc1)C(=O)Cc1c(-c2ccc(C)cc2)nc2cc(C)ccn12 8.16

Now for a further compound.
(Q) Quick one: pIC50 of CCN(Cc1ccccn1)C(=O)Cc1c(-c2ccc(C)cc2)nc2cc(C)ccn12.Cl ?
(A) 7.04

====

biological target: TSPO protein separated and purified from rat heart (Rattus norvegicus (Rat), UniProt P16257); assay: TSPO and radioligand (3H-PK11195) competitive binding test; conditions: 1 × 10^−5M; n = 6 times
# Lookup of reported Inhibition rate (%) keyed by entry
Enter your answer as a number in %; do not include the unit.

Worked cases, answers included:
COMPOUND	VALUE REPORTED
CCN(Cc1ccncc1)C(=O)Cc1c(-c2ccc(Cl)cc2)nc2ccc(C)cn12.Cl	84
COCCN(Cc1cccnc1)C(=O)Cc1c(-c2ccc(Cl)c(Cl)c2)nc2cc(C)ccn12.Cl	80
CCN(Cc1ccncc1)C(=O)Cc1c(-c2ccc(C)cc2)nc2cc(C)ccn12.Cl	72
CCN(Cc1ccccc1)C(=O)Cc1c(-c2ccc(Cl)c(Cl)c2)nc2cc(C)ccn12	99
CN1C(=O)CN=C(c2ccc(Cl)cc2)c2cc(Cl)ccc21 [Compound R05-4864, 4′-chlorodiazepam, reference compound]	100

(Q) Quick one: Inhibition rate (%) of CCN(Cc1ccncc1)C(=O)Cc1c(-c2ccc(OC)cc2)nc2cc(C)ccn12.Cl ?
(A) 63

(Q) Quick one: Inhibition rate (%) of COCCN(Cc1ccccn1)C(=O)Cc1c(-c2ccc(Cl)cc2)nc2cc(C)ccn12.Cl ?
(A) 100

(Q) Quick one: Inhibition rate (%) of CCN(Cc1cccnc1)C(=O)Cc1c(-c2ccc(Cl)c(Cl)c2)nc2cc(C)ccn12.Cl ?
(A) 86

(Q) Quick one: Inhibition rate (%) of CCN(Cc1ccccn1)C(=O)Cc1c(-c2ccc(C)cc2)nc2cc(C)ccn12.Cl ?
(A) 97

(Q) Quick one: Inhibition rate (%) of COCCN(Cc1cccnc1)C(=O)Cc1c(-c2ccc(C)cc2)nc2cc(C)ccn12.Cl ?
(A) 69

(Q) Quick one: Inhibition rate (%) of CCN(Cc1ccccn1)C(=O)Cc1c(-c2ccc(Cl)c(Cl)c2)nc2cc(C)ccn12.Cl ?
(A) 100

(Q) Quick one: Inhibition rate (%) of CCN(Cc1cccnc1)C(=O)Cc1c(-c2ccc(Cl)cc2)nc2cc(C)ccn12.Cl ?
(A) 100

(Q) Quick one: Inhibition rate (%) of COCCN(Cc1cccnc1)C(=O)Cc1c(-c2ccc(OC)cc2)nc2cc(C)ccn12.Cl ?
(A) 17

(Q) Quick one: Inhibition rate (%) of CCN(Cc1ccncc1)C(=O)Cc1c(-c2ccc(Cl)cc2)nc2cc(C)ccn12.Cl ?
(A) 100

(Q) Quick one: Inhibition rate (%) of CCN(Cc1ccccc1)C(=O)Cc1c(-c2ccc(Cl)cc2)nc2cc(C)ccn12 ?
(A) 100

(Q) Quick one: Inhibition rate (%) of CCN(Cc1ccccn1)C(=O)Cc1c(-c2ccc(OC)cc2)nc2cc(C)ccn12.Cl ?
(A) 61

====

target: TSPO protein separated and purified from rat heart (Rattus norvegicus (Rat)); assay: TSPO and radioligand (3H-PK11195) competitive binding test; settings: 1 × 10^−7M; n = 6 times
ASSAY ENDPOINT: Inhibition rate (%)
Enter your answer as a number in %; do not include the unit.

Worked cases, answers included:
CCN(Cc1cccnc1)C(=O)Cc1c(-c2ccc(Cl)cc2)nc2cc(C)ccn12.Cl 25
COCCN(CCN1CCOCC1)C(=O)Cc1c(-c2ccc(C)cc2)nc2cc(C)ccn12.Cl 0
CCN(Cc1ccncc1)C(=O)Cc1c(-c2ccc(C)cc2)nc2cc(C)ccn12.Cl 41
COCCN(Cc1cccnc1)C(=O)Cc1c(-c2ccc(OC)cc2)nc2cc(C)ccn12.Cl 3
CCN(Cc1cccnc1)C(=O)Cc1c(-c2ccc(C)cc2)nc2cc(C)ccn12.Cl 15
CCN(Cc1ccccn1)C(=O)Cc1c(-c2ccc(Cl)cc2)nc2cc(C)ccn12.Cl 59
CCN(Cc1ccccc1)C(=O)Cc1c(-c2ccc(OC)cc2)nc2cc(C)ccn12 76

Now for a further molecule.
(Q) Given the entry COCCN(Cc1ccccn1)C(=O)Cc1c(-c2ccc(Cl)c(Cl)c2)nc2cc(C)ccn12.Cl , what Inhibition rate (%) was observed with TSPO protein separated and purified from rat heart (Rattus norvegicus (Rat))?
(A) 65

====

# Lookup of reported melting point keyed by entry

CCN(Cc1ccccc1)C(=O)Cc1c(-c2ccc(Cl)cc2)nc2cc(C)ccn12 192 to 193 °C
CCN(Cc1ccncc1)C(=O)Cc1c(-c2ccc(OC)cc2)nc2cc(C)ccn12.Cl 239 to 242 °C
CCN(Cc1ccccc1)C(=O)Cc1c(-c2ccc(Cl)c(Cl)c2)nc2cc(C)ccn12 180 to 182 °C

(Q) Quick one: melting point of COCCN(Cc1ccccn1)C(=O)Cc1c(-c2ccc(C)cc2)nc2cc(C)ccn12.Cl ?
(A) 239 to 240 °C

(Q) Quick one: melting point of COCCN(Cc1cccnc1)C(=O)Cc1c(-c2ccc(Cl)c(Cl)c2)nc2cc(C)ccn12.Cl ?
(A) 235 to 237 °C

(Q) Quick one: melting point of COCCN(Cc1cccnc1)C(=O)Cc1c(-c2ccc(OC)cc2)nc2cc(C)ccn12.Cl ?
(A) 243 to 245 °C

(Q) Quick one: melting point of CCN(Cc1cccnc1)C(=O)Cc1c(-c2ccc(Cl)c(Cl)c2)nc2cc(C)ccn12.Cl ?
(A) 245 to 248 °C

(Q) Quick one: melting point of CCN(Cc1ccncc1)C(=O)Cc1c(-c2ccc(Cl)c(Cl)c2)nc2cc(C)ccn12.Cl ?
(A) 250 to 252 °C

(Q) Quick one: melting point of CCN(Cc1ccccc1)C(=O)Cc1c(-c2ccc(OC)cc2)nc2cc(C)ccn12 ?
(A) 175 to 178 °C

(Q) Quick one: melting point of CCN(Cc1cccnc1)C(=O)Cc1c(-c2ccc(C)cc2)nc2cc(C)ccn12.Cl ?
(A) 251 to 253 °C

(Q) Quick one: melting point of COCCN(Cc1cccnc1)C(=O)Cc1c(-c2ccc(C)cc2)nc2cc(C)ccn12.Cl ?
(A) 224 to 226 °C
